Test: Quantitative highthroughput screen to assess conditional lethalithy of NOMO1 cells grown in RPMI1640 with dialyzed fetal bovine serum (RPMI+ds) (AID 1963877); further: nearly all actives have a fitted effect of over 30% in size;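 on viability: 100% = DMSO control wells and 0% = empty wells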
Conditions: NOMO1 in RPMI+dialyzed FBS viability, ATP luminescence, 48 h; series mostly up to 45.8 µM
Results filed as inconclusive are left out. The source made the active and inactive calls. The call rests on the fitted dose curve; in most records, active means well fitted cell-killing curve with a large enough effect; inconclusive means small, poorly fitted or top-dose-only effect; inactive means flat fitted curve, though single readings scatter.
Outcome codes: active, inactive

{"compound": "CC(O)C1C(=O)N2C(C(=O)O)=C(SC3CNC(C(=O)N(C)C)C3)C(C)C12 (centres undefined)", "discrete label": "inactive"}
{"compound": "C[C@@H]1CN(Cc2ccc(F)cc2)[C@@H](C)CN1C(=O)c1cc2c(C(=O)C(=O)N(C)C)cn(C)c2cc1Cl", "discrete label": "inactive"}
{"compound": "O=C1NC(=O)C(c2cnc3ccccn23)=C1c1cn2c3c(cc(F)cc13)CN(C(=O)N1CCCCC1)CC2", "discrete label": "inactive"}
{"compound": "CCc1c(O)cc(O)c(C(=O)c2ccc(OCCN3CCOCC3)c(OC)c2)c1CC(=O)N(CCOC)CCOC", "discrete label": "active"}
{"compound": "O=c1n(CCCN2CCN(c3cccc(Cl)c3)CC2)nc2ccccn12", "discrete label": "inactive"}
{"compound": "CNC(=O)c1cc(Oc2ccc(NC(=O)Nc3ccc(Cl)c(C(F)(F)F)c3)c(F)c2)ccn1", "discrete label": "inactive"}
{"compound": "NC1CCC(Nc2nc(Nc3ccc(C(=O)N4CCCCC4)cc3)c3ncn(-c4cccc(F)c4)c3n2)CC1 (centres undefined)", "discrete label": "inactive"}
{"compound": "Cc1oncc1C(=O)Nc1ccc(C(F)(F)F)cc1", "discrete label": "inactive"}
{"compound": "CCOc1ccccc1OCCNC(C)Cc1ccc(OC)c(S(N)(=O)=O)c1 (centres undefined)", "discrete label": "inactive"}

* * *

Assay: Viability qHTS for spleen associated tyrosine kinase inhibitor (SYKi) drug resistant MV4-11 cells (AID 1963824); further: nearly all actives have a fitted effect of over 35% in size
Details: SYKi-resistant MV4-11 viability, CellTiter-Glo, 72 h; series mostly up to 45 µM
Records with an inconclusive call do not appear. Active and inactive are the calls of the source. The call rests on the fitted dose curve; in most records, active means well fitted cell-killing curve with a large enough effect; inconclusive means small, poorly fitted or top-dose-only effect, or effect the other way; inactive means no such curve, though single readings can be large or run the other way.
metric name: viability, % of control

{"compound": "C[C@@H]1O[C@@H](O[C@H]2[C@H](OC(=O)[C@]34CCC(C)(C)C[C@H]3C3=CCC5[C@@]6(C)CC[C@H](O[C@@H]7O[C@H](CO[C@@H]8OC[C@H](O)[C@H](O)[C@H]8O[C@@H]8OC[C@@H](O)[C@H](O)[C@H]8O)[C@@H](O)[C@H](O)[C@H]7O)C(C)(C)C6CC[C@@]5(C)[C@]3(C)C[C@H]4O)O[C@H](CO)[C@@H](O)[C@@H]2O)[C@H](O[C@@H]2O[C@H](CO)[C@@H](O)[C@H](O)[C@H]2O)[C@H](O)[C@H]1O[C@@H]1OC[C@@H](O)[C@H](O[C@@H]2OC[C@@H](O)[C@H](O)[C@H]2O)[C@H]1O (stereo partly drawn)", "result": "88.9% [at 4.97 µM] (inactive)"}
{"compound": "CC1OC(O[C@@H]2[C@@H](O)[C@H](OC(=O)[C@]34CCC(C)(C)C[C@H]3C3=CCC5[C@@]6(C)CC[C@H](O[C@@H]7O[C@H](C(=O)O)[C@@H](O)[C@H](O[C@@H]8OC[C@@H](O)[C@H](O)[C@H]8O)[C@H]7O[C@@H]7O[C@H](CO)[C@H](O)[C@H](O)[C@H]7O)[C@@](C)(C=O)C6CC[C@@]5(C)[C@]3(C)C[C@H]4O)O[C@H](C)[C@@H]2OC2OC(C)C(OC3OCC(O)C(O)C3O)C(O)C2O)C(O)C(O)C1O (stereo partly drawn)", "result": "106% [at 9.25 µM] (inactive)"}
{"compound": "C[C@@H]1O[C@@H](O[C@H]2[C@H](O)[C@@H](C(=O)O)O[C@@H](O[C@H]3CC[C@@]4(C)C(CC[C@]5(C)C4CC=C4C6CC(C)(C)CC[C@]6(C(=O)O)CC[C@]45C)C3(C)C)[C@@H]2O[C@@H]2O[C@H](CO)[C@@H](O)[C@H](O)[C@H]2O)[C@H](O)[C@H](O)[C@H]1O (stereo partly drawn)", "result": "81.7% [at 9.25 µM] (inactive)"}
